molecular target: IL-18R on HEK-Blue IL18R reporter cells (InvivoGen, #hkb-hmil18); assay: cell-based or functional assay
The following binders are listed with their measured EC50 (pM), HEK-Blue IL18R reporter assay values.
MEASURE: EC50 (pM), HEK-Blue IL18R reporter assay

1) Modified IL-18 polypeptide of SEQ ID NO: 10 (E06K, K53A, S55A, T63A) (ligand) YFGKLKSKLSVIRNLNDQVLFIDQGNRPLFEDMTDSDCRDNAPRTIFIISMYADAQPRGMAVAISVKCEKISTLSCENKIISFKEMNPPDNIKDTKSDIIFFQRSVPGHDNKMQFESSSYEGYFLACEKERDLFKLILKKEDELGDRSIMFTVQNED ... 0.79 pM
2) Modified IL-18 polypeptide of SEQ ID NO: 22 (E06K, K53A, C38S, C68S, C76S, C127S, K70C) (ligand) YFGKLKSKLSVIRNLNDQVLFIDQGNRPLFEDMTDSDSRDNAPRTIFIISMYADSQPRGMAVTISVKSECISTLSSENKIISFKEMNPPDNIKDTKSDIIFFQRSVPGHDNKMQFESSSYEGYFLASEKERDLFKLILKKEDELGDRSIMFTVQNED ... 9.12 pM
3) Modified IL-18 polypeptide of SEQ ID NO: 18 (E06K, K53A, T63A) (ligand) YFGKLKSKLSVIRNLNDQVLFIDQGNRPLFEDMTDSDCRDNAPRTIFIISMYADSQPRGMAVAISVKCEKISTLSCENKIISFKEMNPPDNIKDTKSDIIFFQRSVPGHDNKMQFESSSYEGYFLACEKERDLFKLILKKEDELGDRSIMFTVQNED ... 1.77 pM
